test system: Noggin (protein binding on small-molecule microarray); assay: small molecules binding Noggin protein – biochemical, 635/667 nm fluorescence, primary screen (AID 1095); conditions: 635 nm fluorescence, higher = more signal;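 also: score merges 667 nm feature fluorescence with signal to noise over triplicate slides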
# label = yes (1) if composite z-score >= 0.3 else no (0)

Recorded results for 5 compounds are shown here.
COMPOUND | STUDY TARGET | DISCRETE LABEL
C=CC[C@]1(C(=O)NCC(O)CO)N=C(c2ccc(OCCCO)cc2)O[C@H]1c1ccccc1N=[N+]=[N-] (stereo partly specified) | Noggin (protein binding on small-molecule microarray) | no (0)
COc1ccc(C#Cc2ccc3c(c2)[C@]2(C(=O)N3)[C@H](c3ccc(OCCO)cc3)N3[C@H](c4ccccc4)[C@H](c4ccccc4)OC(=O)[C@H]3[C@@H]2C(=O)N2CCN(c3ncccn3)CC2)cc1 | Noggin (protein binding on small-molecule microarray) | yes (1)
C=CCOC(=O)[C@@H]1[C@H]2C(=O)O[C@H](c3ccccc3)[C@H](c3ccccc3)N2[C@H](c2ccc(OCCOC(=O)[C@H]3C[C@H]4C(=O)N[C@@H](Cc5ccccc5)C(=O)N4[C@H]3c3cccc(OCCO)c3)cc2)[C@@]12C(=O)Nc1ccc(I)cc12 | Noggin (protein binding on small-molecule microarray) | yes (1)
CC(C)CN1C(=O)[C@@]2(Cc3ccccc31)c1ccccc1C(=O)N(Cc1ccccc1)[C@H]2c1ccc(CO)cc1 | Noggin (protein binding on small-molecule microarray) | no (0)
CN(C)CCCN1C(=O)[C@@]2(Cc3ccccc31)c1ccccc1C(=O)N(Cc1ccccc1)[C@H]2c1ccc(CO)cc1 | Noggin (protein binding on small-molecule microarray) | yes (1)

# evaluate next
Task: Check the entry COCCOC(=O)N1C(=O)[C@@]2(c3cc(C#CC4(O)CCCCCC4)ccc31)[C@H](C(=O)NC[C@H](O)c1ccccc1)[C@H]1C(=O)O[C@H](c3ccccc3)[C@H](c3ccccc3)N1[C@@H]2c1ccc(OCCO)cc1 : does composite z-score equal or exceed 0.3?
Result: yes (1)

* * *

assay: small molecules captured by biotinylated probe aFGF2 – biochemical, small-molecule microarray, fluorescence 635/667, stem cell growth factor project, primary screen (AID 1067); conditions: higher = more signal;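 also: measures binding of biotinylated aFGF2 protein to printed compounds on slides; z-score merges feature fluorescence and signal-to-noise across triplicate slides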
Exercise: state measured composite z-score for each of the compounds provided.
Give bare numbers.

The following compounds have reported results that may help.
COMPOUND | composite z-score
O=c1c2ccc(Br)cc2nc(-c2ccccc2)n1Cc1cccc(O)c1 | -0.0774
O=C1O[C@H](c2ccccc2)[C@H](c2ccccc2)N2[C@H]1[C@@H](C(=O)N1CCCCCCC1)[C@]1(C(=O)Nc3ccccc31)[C@H]2c1ccc(O)cc1 | 1.1
O=C1NC(=O)C2C1C=CC(C(O)c1ccc3c(c1)OCO3)N2Nc1ccc(Cl)cc1Cl (stereo not given) | -0.0274

List the reported composite z-score of each compound below.
1. COC(=O)[C@@]1(Cc2ccc(OC)cc2)[C@H]2c3cc(C(=O)N4CCCC4)n(Cc4ccc(C)o4)c3C[C@H]2CN1C(=O)c1ccccc1
2. C=C(C(=O)CC[C@H](OC(=O)c1cccnc1)c1ccc(OCCO)cc1)C(C)C

Result:
1: 0.218; 2: 0.0612

* * *

Exercise: state measured z-score for each of the molecules provided.
assay: resazurin metabolic signal in A549 cells – cell-based, resazurin fluorescence, 24 h, PK04 Diversity Set, profiling panel (AID 1171); conditions: A549 viability, higher = more signal, called active from +8 up or from −8 down; also: test concentration not given here
The source made the active and inactive calls.

The following molecules have reported results that may help.
MOLECULE | TEST READOUT | RESULT
CCC[C@@H]1C[C@@]1(CCC)[C@@H](NC(=O)c1cccs1)c1ccc(Cl)cc1 | z-score | 4.94 (inactive)
COC(=O)[C@@]1(Cc2ccc(F)cc2)[C@@H]2[C@@H](CC(=O)[C@H]2CC(=O)C(=O)N2CCCC2)CN1C(=O)c1ccccc1 | z-score | -0.919 (inactive)
CCN(CC)c1ccc(N2CC=CC34O[C@@H]5/C=C\CCCOC(=O)C5[C@H]3C(=O)N(CCCCCO)[C@@H]4C2=O)cc1 (stereo partly drawn) | z-score | 0.0257 (inactive)
O=C1NC(=O)C2C1C=CC(C(O)c1ccc3c(c1)OCO3)N2Nc1ccc(Cl)cc1Cl (stereo not drawn) | z-score | -0.233 (inactive)
O=C1O[C@H](c2ccccc2)[C@H](c2ccccc2)N2[C@H]1[C@@H](C(=O)NC[C@H](O)c1ccccc1)[C@]1(C(=O)Nc3ccccc31)[C@H]2c1ccccc1OCCO | z-score | -3.12 (inactive)
O=C(O)[C@]1(CCS(=O)(=O)c2ccccc2)N=C(c2ccc(OCCCO)cc2)O[C@@H]1c1ccccc1 | z-score | 0.704 (inactive)
CCCN1C(=O)[C@@H]2Cc3c([nH]c4ccccc34)[C@@H](c3cccc(O)c3)N2C1=O | z-score | 0.264 (inactive)

Task: // query z-score value for entry O=C1N(Cc2ccccc2)c2ccccc2[C@H]2OC(c3ccc(OCCCO)cc3)=N[C@@]12CCS(=O)(=O)c1ccccc1
Result: -0.725 (inactive)

* * *

target: Epidermal growth factor receptor (Homo sapiens) (UniProt P00533); test: compounds binding epidermal growth factor receptor – biochemical, small-molecule microarray, 635 nm fluorescence, primary screen (AID 1104); conditions: EGFR binding, higher = more signal;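 also: score merges 667 nm emission intensity with spot signal to noise over triplicate slides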
Sequence (P00533 whole entry, looked up): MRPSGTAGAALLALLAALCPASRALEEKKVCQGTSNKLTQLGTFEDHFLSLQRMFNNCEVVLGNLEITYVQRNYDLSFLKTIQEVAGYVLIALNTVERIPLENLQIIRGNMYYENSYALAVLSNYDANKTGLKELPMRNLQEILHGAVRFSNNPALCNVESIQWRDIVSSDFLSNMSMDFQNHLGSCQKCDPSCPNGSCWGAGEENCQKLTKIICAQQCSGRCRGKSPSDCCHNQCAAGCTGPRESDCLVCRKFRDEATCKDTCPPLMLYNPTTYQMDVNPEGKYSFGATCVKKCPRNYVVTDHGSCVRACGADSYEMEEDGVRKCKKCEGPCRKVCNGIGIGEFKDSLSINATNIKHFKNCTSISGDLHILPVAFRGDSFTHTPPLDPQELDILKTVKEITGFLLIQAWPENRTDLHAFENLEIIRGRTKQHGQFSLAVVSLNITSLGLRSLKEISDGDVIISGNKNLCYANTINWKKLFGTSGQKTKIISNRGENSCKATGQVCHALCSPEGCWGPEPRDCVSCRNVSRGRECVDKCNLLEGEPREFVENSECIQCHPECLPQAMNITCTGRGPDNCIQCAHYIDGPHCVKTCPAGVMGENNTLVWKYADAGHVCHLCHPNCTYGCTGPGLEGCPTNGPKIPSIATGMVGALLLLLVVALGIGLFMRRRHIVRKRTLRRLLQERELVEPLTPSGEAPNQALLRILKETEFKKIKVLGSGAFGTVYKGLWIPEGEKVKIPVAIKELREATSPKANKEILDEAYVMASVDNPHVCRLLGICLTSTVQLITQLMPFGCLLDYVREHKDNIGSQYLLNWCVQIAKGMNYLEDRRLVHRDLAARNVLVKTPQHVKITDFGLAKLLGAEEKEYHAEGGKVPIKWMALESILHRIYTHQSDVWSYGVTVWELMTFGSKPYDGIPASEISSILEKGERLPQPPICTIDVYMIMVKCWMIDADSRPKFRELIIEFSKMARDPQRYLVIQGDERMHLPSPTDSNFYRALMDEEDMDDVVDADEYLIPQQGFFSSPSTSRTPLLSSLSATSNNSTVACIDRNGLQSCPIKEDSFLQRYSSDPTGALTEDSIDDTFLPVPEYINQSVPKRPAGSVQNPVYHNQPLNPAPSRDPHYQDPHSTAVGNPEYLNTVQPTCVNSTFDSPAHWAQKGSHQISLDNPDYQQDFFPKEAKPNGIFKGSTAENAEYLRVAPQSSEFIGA
# label = Fulfilled if composite z-score >= 0.2 else Not fulfilled

Recorded results for 5 compounds are shown here.
COMPOUND | DISCRETE LABEL
C[C@H]1NC(=O)C([C@@H](C)OCc2ccccc2)NC(=O)[C@@]23C(=O)N[C@@H](Cc4ccccc4)C2[C@H](C)[C@@]2(C)O[C@H]2C3/C=C/CC/C=C/CNC1=O (stereo not given in full) | Fulfilled
COCCOC(=O)N1C(=O)[C@@]2(c3cc(C#CCC(C(=O)OC)C(=O)OC)ccc31)[C@H](C(=O)N1CCCCCCC1)[C@H]1C(=O)O[C@H](c3ccccc3)[C@H](c3ccccc3)N1[C@@H]2c1ccc(O)cc1 | Fulfilled
C=CCC(OC(C)=O)[C@@H]1[C@@H](N(Cc2ccc(-c3ccccc3)cc2)C(=O)c2cccc3ccccc23)c2cc(OCCCO)ccc2N1C(=O)c1ccc2ccccc2n1 (stereo not given in full) | Not fulfilled
C=CCOC(=O)[C@@H]1[C@H]2C(=O)O[C@H](c3ccccc3)[C@H](c3ccccc3)N2[C@H](c2ccc(OCCOC(=O)[C@H]3C[C@H]4C(=O)N[C@@H](Cc5ccccc5)C(=O)N4[C@H]3c3cccc(OCCO)c3)cc2)[C@@]12C(=O)Nc1ccc(I)cc12 | Fulfilled
C=CC[C@]1(C(=O)N(C)C)N=C(c2ccc(OCCCO)cc2)O[C@H]1c1ccccc1 | Not fulfilled

Task: Check the entry CO[C@H]1O[C@H](CO)[C@@H](OC(=O)c2ccc(Br)cc2)[C@@H]2OC(=O)[C@H](Cc3cccc(Br)c3)C/C=C/C[C@@H](Cc3cccc(Br)c3)C(=O)O[C@@H]12 : does composite z-score equal or exceed 0.2?
Result: Not fulfilled

Task: Check the entry CN1C(=O)C2C=CC(C(O)COCc3ccccc3)N(Nc3ccccc3)C2C1=O (stereo not given) : does composite z-score equal or exceed 0.2?
Result: Not fulfilled

Task: Check the entry CC(C)(C)OC(=O)CC[C@]1(C(=O)N2CCCCC2)N=C(c2ccc(OCCCO)cc2)O[C@H]1c1ccccc1CN=[N+]=[N-] : does composite z-score equal or exceed 0.2?
Result: Fulfilled

Task: Check the entry NC(=O)NCC#Cc1ccc2c(c1)[C@]1(C(=O)N2)[C@H](c2ccc(OCCO)cc2)N2[C@H](c3ccccc3)[C@H](c3ccccc3)OC(=O)[C@H]2[C@@H]1C(=O)N1CCN(c2ncccn2)CC1 : does composite z-score equal or exceed 0.2?
Result: Fulfilled

Task: Check the entry CC(C)[Si](C#C[Si](C(C)C)(C(C)C)C(C)C)(O[C@H](C)c1cn(Cc2cccc(Cl)c2)nn1)C(C)C : does composite z-score equal or exceed 0.2?
Result: Fulfilled

Task: Check the entry COCCCNC(=O)[C@@H]1c2ccccc2C(=O)N(c2ccc(C)cn2)[C@H]1c1ccc(CO)cc1 : does composite z-score equal or exceed 0.2?
Result: Not fulfilled

Task: Check the entry COc1ccc([Si](C)(C)[C@H]2[C@H](CCO)O[C@@]3(C(=O)N(Cc4cccc(N5CCOC5=O)c4)c4ccccc43)[C@@H]2C)cc1 : does composite z-score equal or exceed 0.2?
Result: Not fulfilled

Task: Check the entry COCCOC(=O)N1C(=O)[C@@]2(c3cc(C#CC4(O)CCCCCC4)ccc31)[C@H](C(=O)NC[C@H](O)c1ccccc1)[C@H]1C(=O)O[C@H](c3ccccc3)[C@H](c3ccccc3)N1[C@@H]2c1ccc(OCCO)cc1 : does composite z-score equal or exceed 0.2?
Result: Fulfilled

Task: Check the entry COCCCNC(=O)[C@]1(CCS(=O)(=O)c2ccccc2)N=C(c2ccc(OCCCO)cc2)O[C@@H]1c1ccccc1 : does composite z-score equal or exceed 0.2?
Result: Fulfilled

Task: Check the entry O=C(NCc1ccccc1)[C@]1(Cc2ccccc2)N=C(c2ccc(OCCCO)cc2)O[C@@H]1c1ccccc1 : does composite z-score equal or exceed 0.2?
Result: Not fulfilled

Task: Check the entry COCCCNC(=O)[C@@H]1c2ccccc2C(=O)N(Cc2cc(F)cc(C(F)(F)F)c2)[C@H]1c1ccc(CO)cc1 : does composite z-score equal or exceed 0.2?
Result: Not fulfilled

Task: Check the entry CC(C)NC(=O)[C@@H]1c2ccccc2C(=O)N(Cc2cc(C(F)(F)F)cc(C(F)(F)F)c2)[C@H]1c1ccc(CO)cc1 : does composite z-score equal or exceed 0.2?
Result: Not fulfilled

Task: Check the entry COc1cccc(C[C@H]2C[C@@H](CO[Si](C(C)C)(C(C)C)C(C)C)N3C(=O)[C@]4(C(C)=O)O[C@]23[C@H]2C(=O)N(C)C(=O)[C@H]24)c1 : does composite z-score equal or exceed 0.2?
Result: Fulfilled

Task: Check the entry COCCOC(=O)N1C(=O)[C@@]2(c3ccccc31)[C@H](c1ccccc1OCCO)N1[C@H](c3ccccc3)[C@H](c3ccccc3)OC(=O)[C@H]1[C@@H]2C(=O)N1CCc2cc(OC)c(OC)cc2C1 : does composite z-score equal or exceed 0.2?
Result: Fulfilled
